Data origin, for the record: PubChem BioAssay AID770

Experiment: HT29 colon tumor cell growth inhibition, primary screen, imaging, high content imaging, 24 h, CellTiter-Glo (AID 770)
Conditions: HT29 cell number by imaging, measured here: ATP CellTiter-Glo viability, at 10 µM, stronger effect = higher value
Screen size: about 3,300 compounds; fewer than 10 were called active. Not all results are given here.

{"recordSmiles": "CCCCCCn1c(O)c(C=Nc2c(C)n(C)n(-c3ccccc3)c2=O)c(=O)[nH]c1=O", "growth inhibition (%)": -9.79}
{"recordSmiles": "Cc1c2ccncc2c(C)c2c1[nH]c1ccccc12", "growth inhibition (%)": 46.4}
{"recordSmiles": "Cn1c(O)c(C=NC2CCN(Cc3ccccc3)CC2)c(=O)n(C)c1=O", "growth inhibition (%)": 3.87}
{"recordSmiles": "c1ccc2c(c1)[nH]c1cnccc12", "growth inhibition (%)": 17.6}
{"recordSmiles": "CN1CC[C@@]23CCCC[C@@H]2[C@@H]1Cc1ccc(O)cc13", "growth inhibition (%)": -18.2}
{"recordSmiles": "Cc1c(N=Cc2c(O)n(CCc3ccccc3)c(=O)[nH]c2=O)c(=O)n(-c2ccccc2)n1C", "growth inhibition (%)": 16.4}
{"recordSmiles": "CCOc1ccccc1-n1c(O)c(C=Nc2c(C)n(C)n(-c3ccccc3)c2=O)c(=O)[nH]c1=O", "growth inhibition (%)": -85.3}
{"recordSmiles": "CCCCCCn1c(O)c(C=NC2CCN(Cc3ccccc3)CC2)c(=O)[nH]c1=O", "growth inhibition (%)": 23.3}
{"recordSmiles": "C=CCOC(=O)C1=C(C)OC(N)=C(C#N)[C@@]12C(=O)N(CC(N)=O)c1ccccc12", "growth inhibition (%)": -1.1}
{"recordSmiles": "C/C(Cl)=C/CC1(CN2CCCC2=O)C(=O)NC(=O)NC1=O", "growth inhibition (%)": -8.34}

----------
Recorded condensed nuclei values for a group of compounds are listed next.
Test: HT29 colon tumor cell growth inhibition, primary screen, imaging, high content imaging, 24 h, CellTiter-Glo (AID 770);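 on condensed nuclei: share of cells whose nuclear area falls below control median minus 1.5 SD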
Details: HT29 cell number by imaging, measured here: percent cells with condensed nuclei, at 10 µM, stronger effect = higher value
Screen size: about 3,300 compounds; fewer than 10 were called active. The list is a sample of the results.

{"recordSmiles": "CCOc1ccccc1-n1c(O)c(C=Nc2c(C)n(C)n(-c3ccccc3)c2=O)c(=O)[nH]c1=O", "condensed nuclei": "5.62%"}
{"recordSmiles": "C=CCOC(=O)C1=C(C)OC(N)=C(C#N)[C@@]12C(=O)N(CC(N)=O)c1ccccc12", "condensed nuclei": "5.52%"}
{"recordSmiles": "CN1CC[C@@]23CCCC[C@@H]2[C@@H]1Cc1ccc(O)cc13", "condensed nuclei": "4.84%"}
{"recordSmiles": "CCCCCCn1c(O)c(C=NC2CCN(Cc3ccccc3)CC2)c(=O)[nH]c1=O", "condensed nuclei": "1.13%"}
{"recordSmiles": "Cc1c(N=Cc2c(O)n(CCc3ccccc3)c(=O)[nH]c2=O)c(=O)n(-c2ccccc2)n1C", "condensed nuclei": "7.53%"}
{"recordSmiles": "CCCCCCn1c(O)c(C=Nc2c(C)n(C)n(-c3ccccc3)c2=O)c(=O)[nH]c1=O", "condensed nuclei": "3.03%"}
{"recordSmiles": "Cc1c2ccncc2c(C)c2c1[nH]c1ccccc12", "condensed nuclei": "18.1%"}

----------
Experiment: HT29 colon tumor cell growth inhibition, primary screen, imaging, high content imaging, 24 h, CellTiter-Glo (AID 770)
Conditions: HT29 cell number by imaging, at 10 µM
The whole screen tested about 3,300 compounds, of which fewer than 10 were called active.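 Rule for the calls: active = growth inhibition above 90% in viable cell count at a single dose; inactive = growth inhibition below 90%.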 Not all results are given here.
Outcome codes: true (1) (active), false (0) (inactive)

{"recordSmiles": "CCCCCCn1c(O)c(C=Nc2c(C)n(C)n(-c3ccccc3)c2=O)c(=O)[nH]c1=O", "className": "false (0)"}
{"recordSmiles": "Cc1c(N=Cc2c(O)n(CCc3ccccc3)c(=O)[nH]c2=O)c(=O)n(-c2ccccc2)n1C", "className": "false (0)"}
{"recordSmiles": "C=CCOC(=O)C1=C(C)OC(N)=C(C#N)[C@@]12C(=O)N(CC(N)=O)c1ccccc12", "className": "false (0)"}
{"recordSmiles": "CN1CC[C@@]23CCCC[C@@H]2[C@@H]1Cc1ccc(O)cc13", "className": "false (0)"}
{"recordSmiles": "C/C(Cl)=C/CC1(CN2CCCC2=O)C(=O)NC(=O)NC1=O", "className": "false (0)"}
{"recordSmiles": "c1ccc2c(c1)[nH]c1cnccc12", "className": "false (0)"}
{"recordSmiles": "Cn1c(O)c(C=NC2CCN(Cc3ccccc3)CC2)c(=O)n(C)c1=O", "className": "false (0)"}
{"recordSmiles": "Cc1c2ccncc2c(C)c2c1[nH]c1ccccc12", "className": "true (1)"}
